- condition details: in 2-butanone, 313.15 K
endpoint: solubility (mole fraction)
Keep the answer to the number alone.

Entry `CC(C)(C)OC(=O)N[C@@H](CC(N)=O)C(=O)O` : reported solubility (mole fraction) = ? 0.00109

----------
- condition details: in n-propanol, 318.15 K
endpoint: solubility (mole fraction)
Keep the answer to the number alone.

Entry `CC(C)(C)OC(=O)N[C@@H](CC(N)=O)C(=O)O` : reported solubility (mole fraction) = ? 0.00498

----------
- condition details: in 2-butanone, 298.15 K
endpoint: solubility (mole fraction)
Keep the answer to the number alone.

Entry `CC(C)(C)OC(=O)N[C@@H](CC(N)=O)C(=O)O` : reported solubility (mole fraction) = ? 0.000673

Source listed as BigSolDB 2.1.
